Biological target: HDAC3 (Homo sapiens, UniProt O15379)
Sequence (O15379 whole entry): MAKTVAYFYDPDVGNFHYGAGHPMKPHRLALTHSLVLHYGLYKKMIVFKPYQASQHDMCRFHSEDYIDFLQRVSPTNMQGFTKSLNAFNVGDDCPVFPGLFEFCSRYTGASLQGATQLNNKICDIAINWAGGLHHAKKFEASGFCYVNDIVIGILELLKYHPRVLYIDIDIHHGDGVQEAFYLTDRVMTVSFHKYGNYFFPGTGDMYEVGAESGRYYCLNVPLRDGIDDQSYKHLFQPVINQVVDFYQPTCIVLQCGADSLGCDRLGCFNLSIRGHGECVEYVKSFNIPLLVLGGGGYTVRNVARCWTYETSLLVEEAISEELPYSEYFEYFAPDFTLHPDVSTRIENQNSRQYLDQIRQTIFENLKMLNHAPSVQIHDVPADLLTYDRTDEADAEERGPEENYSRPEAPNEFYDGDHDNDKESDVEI
Sequence (Q9Y618 395-489 partner limits assumed): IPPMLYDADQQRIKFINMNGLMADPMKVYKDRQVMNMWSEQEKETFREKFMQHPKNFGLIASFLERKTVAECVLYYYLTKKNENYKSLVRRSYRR
Assay: HDAC enzyme assay, HDAC3
Conditions: selectivity HDAC6 over HDAC3
PROPERTY_MEASURED: HDAC3 fold versus HDAC6 (in brackets)

MOL	SYSTEM_NAME	OBSERVED
Cc1ccc(C2(Nc3ncc(C(=O)NO)cn3)CC2)cc1	HDAC3 (Homo sapiens, UniProt O15379)	(51x)

###

Experiment: Pharmacokinetics and brain bio-distribution in mice
Format: in vivo, mouse
Details: C57BL/6J, mouse, plasma, ip, 5 mg/kg; mice, acute i.p. dosing; read-out: Cmax
Experimental: […] Plasma samples were taken from all mice upon sacrifice. Brain samples were taken from the mice sacrificed at 5 and 15 minutes and 1 and 4 hours. The brain samples were homogenized in PBS and centrifuged at 14000 rpm for 5 minutes. […] The compound level in the samples was determined by a standard curve in the appropriate matrix. Pharmacokinetic parameters were determined from the raw data by WinNonLin.
Documented Cmax across a set of compounds

COMPOUND	Cmax
O=C(NO)c1cnc(NC2(c3cccc(F)c3)CCCCC2)nc1 [Compound 101]	915 ng/mL

The compound listed as O=C(NO)c1cnc(NC2(c3ccccc3)CC2)nc1 [Compound 73] shows Cmax equal to 494 ng/mL

Ref: patent US20150250786A1
